// IC50 collected for CYP 3A4 (Homo sapiens)
Experimental endpoint: IC50

1) Cn1cc2c(-c3cc(F)c(CN4Cc5ncccc5C4=O)c(F)c3)cccc2n1 [compound 1] :: > 30 µM
2) [2H]C1([2H])c2ncccc2C(=O)N1Cc1c(F)cc(-c2cccc3nn(C([2H])([2H])[2H])cc23)cc1F [compound 5] :: 28.6 µM
3) [2H]C1([2H])c2ncccc2C(=O)N1Cc1c(F)cc(-c2cccc3nn(C)cc23)cc1F [compound 3] :: > 30 µM

* * *

- Assay method text: Rat oral dose escalation PK study
- Format: in vivo
- Test conditions: Sprague-Dawley, plasma; rat, oral, 100 mg/kg
Experimental endpoint: Cmax (ng/mL)

1) [2H]C1([2H])c2ncccc2C(=O)N1Cc1c(F)cc(-c2cccc3nn(C([2H])([2H])[2H])cc23)cc1F :: 7850

* * *

- Assay method text: Plasma protein binding, equilibrium dialysis (rat)
- Assay type: in vitro ADME
- Test conditions: pH 7.4, read-out: fu,plasma
Each entry below lists one item and its recorded fraction unbound at 6 h, 5 µM value.
Experimental endpoint: fraction unbound at 6 h, 5 µM

1) Cn1cc2c(-c3cc(F)c(CN4Cc5ncccc5C4=O)c(F)c3)cccc2n1 :: 0.028
2) [2H]C1([2H])c2ncccc2C(=O)N1Cc1c(F)cc(-c2cccc3nn(C)cc23)cc1F :: 0.034
3) [2H]C1([2H])c2ncccc2C(=O)N1Cc1c(F)cc(-c2cccc3nn(C([2H])([2H])[2H])cc23)cc1F :: 0.026

* * *

- Assay method text: Brain homogenate binding
- Format: in vitro ADME
- Test conditions: pH 7.4; rat brain homogenate; read-out: fu,brain
fraction unbound at 6 h, 1 µM for assorted molecules
Experimental endpoint: fraction unbound at 6 h, 1 µM

1) [2H]C1([2H])c2ncccc2C(=O)N1Cc1c(F)cc(-c2cccc3nn(C([2H])([2H])[2H])cc23)cc1F :: 0.036
2) Cn1cc2c(-c3cc(F)c(CN4Cc5ncccc5C4=O)c(F)c3)cccc2n1 :: 0.04
3) [2H]C1([2H])c2ncccc2C(=O)N1Cc1c(F)cc(-c2cccc3nn(C)cc23)cc1F :: 0.031

* * *

- Assay method text: Rat 14-day exploratory toxicology and toxicokinetic study
- Type: in vivo
- Test conditions: rat 14-day study, day 14, 1500 mg/kg PO of 5; plasma
Experimental endpoint: AUC at 14 day (µg·h/mL)

1) [2H]C1([2H])c2ncccc2C(=O)N1Cc1c(F)cc(-c2cccc3nn(C([2H])([2H])[2H])cc23)cc1F [compound 5] :: 518
2) [2H]C1(O)c2ncccc2C(=O)N1Cc1c(F)cc(-c2cccc3nn(C([2H])([2H])[2H])cc23)cc1F (centres unmarked) [compound 6] :: 143

* * *

- Assayed target: M1 (Homo sapiens)
- Construct: expressed in transfected cells
- Sequence (P11229 1-460): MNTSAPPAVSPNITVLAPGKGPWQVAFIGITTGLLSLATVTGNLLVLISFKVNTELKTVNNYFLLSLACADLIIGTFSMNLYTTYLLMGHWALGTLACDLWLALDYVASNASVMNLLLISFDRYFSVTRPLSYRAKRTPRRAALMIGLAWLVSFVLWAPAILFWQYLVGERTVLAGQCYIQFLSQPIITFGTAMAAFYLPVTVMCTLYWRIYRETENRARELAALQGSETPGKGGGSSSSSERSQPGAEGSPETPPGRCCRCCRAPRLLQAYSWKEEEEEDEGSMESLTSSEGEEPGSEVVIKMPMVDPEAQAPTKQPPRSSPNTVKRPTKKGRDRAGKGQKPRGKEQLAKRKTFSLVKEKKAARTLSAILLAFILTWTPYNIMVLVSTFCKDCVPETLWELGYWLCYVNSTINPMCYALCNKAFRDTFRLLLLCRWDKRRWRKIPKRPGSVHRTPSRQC
- Assay method text: Calcium mobilization, human M1 CHO cells (agonist and PAM modes)
- Format: cell-based
- Test conditions: PAM mode; read-out: hM1 PAM EC50
pEC50: −log10 of the molar value.
Experimental endpoint: pEC50

1. [2H]C1([2H])c2ncccc2C(=O)N1Cc1c(F)cc(-c2cccc3nn(C([2H])([2H])[2H])cc23)cc1F :: 6.72
2. [2H]C1([2H])c2ncccc2C(=O)N1Cc1c(F)cc(-c2cccc3nn(C)cc23)cc1F :: 6.20
3. Cn1cc2c(-c3cc(F)c(CN4Cc5ncccc5C4=O)c(F)c3)cccc2n1 :: 6.31

* * *

- Assay method text: In vivo IV/PO pharmacokinetics, NHP
- Test conditions: cynomolgus monkey, plasma, 1 mg/kg; NHP (cyno); dose iv/po mg/kg: 1 1/3, 5 1/5; read-out: Vss
Experimental endpoint: Vd (L/kg)

1) Cn1cc2c(-c3cc(F)c(CN4Cc5ncccc5C4=O)c(F)c3)cccc2n1 :: 0.9
2) [2H]C1([2H])c2ncccc2C(=O)N1Cc1c(F)cc(-c2cccc3nn(C([2H])([2H])[2H])cc23)cc1F :: 1.1

* * *

- Assay method text: Rat oral dose escalation PK study
- Assay type: in vivo
- Test conditions: Sprague-Dawley, plasma; rat, oral, 3 mg/kg
Experimental endpoint: AUC(0-t) (ng·h/mL)

1. [2H]C1([2H])c2ncccc2C(=O)N1Cc1c(F)cc(-c2cccc3nn(C([2H])([2H])[2H])cc23)cc1F [compound 5] :: 8390

* * *

- Assay method text: Rat oral dose escalation PK study
- Type: in vivo
- Test conditions: Sprague-Dawley, plasma; rat, oral, 100 mg/kg
- Protocol: page 9: Brain plasma concentration ratio (Kp) was calculated by dividing brain concentration by plasma concentration for each animal. Unbound brain to unbound plasma concentration ratio (Kp,uu) is calculated using the following formula: Kp,uu = (Brain ng/g x brain fu)/(plasma ng/ml x plasma fu). […] At different times, arterial blood was collected from a femoral artery catheter, and compound concentration was determined in plasma by LC-MS/MS following their non-GLP protocol. […]
Experimental endpoint: AUC(0-t) (ng·h/mL)

1. [2H]C1([2H])c2ncccc2C(=O)N1Cc1c(F)cc(-c2cccc3nn(C([2H])([2H])[2H])cc23)cc1F :: 87800

* * *

- Assayed target: hERG (Homo sapiens, UniProt Q12809)
- Sequence (Q12809 whole entry): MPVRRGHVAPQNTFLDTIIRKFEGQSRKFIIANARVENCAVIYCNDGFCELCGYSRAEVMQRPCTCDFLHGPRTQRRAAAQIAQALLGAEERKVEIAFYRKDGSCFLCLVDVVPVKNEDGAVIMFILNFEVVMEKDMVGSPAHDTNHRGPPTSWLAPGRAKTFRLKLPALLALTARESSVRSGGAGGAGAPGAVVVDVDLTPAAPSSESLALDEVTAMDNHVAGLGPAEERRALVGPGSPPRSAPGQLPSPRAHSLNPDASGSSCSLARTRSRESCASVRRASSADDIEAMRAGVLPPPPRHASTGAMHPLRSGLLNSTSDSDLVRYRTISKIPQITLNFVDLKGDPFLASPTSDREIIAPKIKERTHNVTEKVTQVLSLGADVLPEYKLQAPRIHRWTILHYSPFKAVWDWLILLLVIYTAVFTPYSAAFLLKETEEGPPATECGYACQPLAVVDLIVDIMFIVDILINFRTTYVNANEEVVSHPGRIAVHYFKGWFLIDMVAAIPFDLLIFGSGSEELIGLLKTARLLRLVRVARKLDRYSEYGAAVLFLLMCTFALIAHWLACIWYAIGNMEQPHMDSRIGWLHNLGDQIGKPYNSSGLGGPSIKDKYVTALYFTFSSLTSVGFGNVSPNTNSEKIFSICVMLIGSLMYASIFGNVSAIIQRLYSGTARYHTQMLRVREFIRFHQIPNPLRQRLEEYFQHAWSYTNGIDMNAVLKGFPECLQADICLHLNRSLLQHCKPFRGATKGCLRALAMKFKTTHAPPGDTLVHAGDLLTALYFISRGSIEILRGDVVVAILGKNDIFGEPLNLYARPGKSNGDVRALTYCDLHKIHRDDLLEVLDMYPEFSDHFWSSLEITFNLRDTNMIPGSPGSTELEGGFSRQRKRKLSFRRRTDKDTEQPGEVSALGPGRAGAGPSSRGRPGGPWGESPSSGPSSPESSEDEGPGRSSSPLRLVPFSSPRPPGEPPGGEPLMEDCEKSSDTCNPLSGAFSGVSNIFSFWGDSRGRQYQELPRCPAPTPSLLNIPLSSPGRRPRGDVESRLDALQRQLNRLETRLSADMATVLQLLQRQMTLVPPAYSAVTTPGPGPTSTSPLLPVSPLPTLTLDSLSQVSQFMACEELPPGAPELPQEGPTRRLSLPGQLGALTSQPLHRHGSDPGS
- Assay method text: hERG manual patch clamp
- Assay type: cell-based
pIC50: −log10 of the molar value.
Experimental endpoint: pIC50

1) [2H]C1([2H])c2ncccc2C(=O)N1Cc1c(F)cc(-c2cccc3nn(C([2H])([2H])[2H])cc23)cc1F :: 4.68
